biological target: p/CIP-EGFP fusion (nuclear receptor coactivator 3, mouse) (UniProt Q05BA5); assay: compounds lowering mouse p/CIP (NCOA3) protein levels – fluorescence, F442A cells, EGFP fusion, primary screen (AID 1984); settings: 16 h, at 10 µM, hits give high values
Sequence (Q05BA5 1-1403): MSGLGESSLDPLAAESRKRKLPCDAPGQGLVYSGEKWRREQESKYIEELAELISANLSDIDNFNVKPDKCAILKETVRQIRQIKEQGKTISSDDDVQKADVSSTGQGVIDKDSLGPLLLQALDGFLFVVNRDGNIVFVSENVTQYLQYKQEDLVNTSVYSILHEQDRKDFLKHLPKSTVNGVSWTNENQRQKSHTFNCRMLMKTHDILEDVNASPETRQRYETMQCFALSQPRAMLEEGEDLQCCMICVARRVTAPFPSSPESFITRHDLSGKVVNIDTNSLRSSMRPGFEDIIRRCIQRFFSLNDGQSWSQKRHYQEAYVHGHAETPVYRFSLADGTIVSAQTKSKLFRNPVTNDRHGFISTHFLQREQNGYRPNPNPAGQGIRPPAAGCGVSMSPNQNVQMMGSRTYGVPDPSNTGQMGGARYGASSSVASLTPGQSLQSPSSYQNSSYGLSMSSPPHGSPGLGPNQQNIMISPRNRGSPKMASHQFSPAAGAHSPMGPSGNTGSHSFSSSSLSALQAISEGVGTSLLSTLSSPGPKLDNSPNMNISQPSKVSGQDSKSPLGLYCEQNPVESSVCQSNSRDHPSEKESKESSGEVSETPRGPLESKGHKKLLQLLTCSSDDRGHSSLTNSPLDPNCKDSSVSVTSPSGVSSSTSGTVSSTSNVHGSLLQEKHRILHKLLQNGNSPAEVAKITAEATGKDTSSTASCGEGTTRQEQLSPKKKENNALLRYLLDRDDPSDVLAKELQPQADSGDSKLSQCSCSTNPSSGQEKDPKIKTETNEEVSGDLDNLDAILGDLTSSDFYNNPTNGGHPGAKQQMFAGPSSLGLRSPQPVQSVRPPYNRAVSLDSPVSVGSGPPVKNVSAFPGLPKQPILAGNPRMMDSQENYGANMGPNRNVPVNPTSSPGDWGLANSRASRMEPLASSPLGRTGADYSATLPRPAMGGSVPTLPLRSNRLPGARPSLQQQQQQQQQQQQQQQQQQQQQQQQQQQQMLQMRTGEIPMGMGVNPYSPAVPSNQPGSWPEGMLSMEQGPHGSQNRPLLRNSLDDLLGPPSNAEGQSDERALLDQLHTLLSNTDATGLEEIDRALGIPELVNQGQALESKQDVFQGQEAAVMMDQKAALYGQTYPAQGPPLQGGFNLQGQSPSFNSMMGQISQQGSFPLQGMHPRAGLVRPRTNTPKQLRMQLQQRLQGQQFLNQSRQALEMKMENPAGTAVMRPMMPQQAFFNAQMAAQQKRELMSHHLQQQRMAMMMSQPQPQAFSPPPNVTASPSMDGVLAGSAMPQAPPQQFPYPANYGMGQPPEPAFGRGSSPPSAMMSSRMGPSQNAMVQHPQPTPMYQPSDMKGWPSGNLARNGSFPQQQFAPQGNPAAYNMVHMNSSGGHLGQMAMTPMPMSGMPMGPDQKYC
Out of some 290,000 compounds screened, about 35 (0.01%) were called active. The sample as a whole holds a higher share of actives than the screen did.
List of decrease of EGFP signal values.
Give your result in % as a bare value.

Worked cases, decrease of EGFP signal given:
In [3]: df
Out[3]:
                                   compound  numeric_readout
0            O=C(O)CCCCCNc1ncnc2ccc(Br)cc12            -16.6
1  Cc1cccc(N2Cc3ccccc3C2=NC(=O)c2ccc(Cl)nc2)c1             -1.5
2  O=S(=O)(NC1CC2CCC1C2)c1ccc(Cl)cc1 (stereo unspecified)            -15.4
3     CS(=O)(=O)c1ccccc1C(=O)Nc1ccc2sccc2c1             -7.2
4      COc1cc(CCC(=O)Nc2ccncc2Cl)cc(OC)c1OC             -2.4
5            Nc1nnc2c(C(F)(F)F)nc3ccccc3n12             -5.5
6  Cc1cc(C)c2nc(N3CCC(C(=O)NCCN4CCOCC4)CC3)sc2c1            -53.2
7          CCc1ccc(Oc2coc3cc(O)ccc3c2=O)cc1             -7.6

Reported decrease of EGFP signal of `Cc1nc2cc(C(F)(F)F)ccc2n1CCNc1nc(-c2cc(Cl)c(N)c(Cl)c2)cs1` : -2.4

Reported decrease of EGFP signal of `Cc1ccc(C(=O)NC2CCN(C(=O)Nc3ccccc3Cl)CC2)cc1` : 5.4

Reported decrease of EGFP signal of `O=C(NCc1ccco1)/C(=C/c1cccc([N+](=O)[O-])c1)NC(=O)c1ccco1` : 1

* * *

target: p/CIP-EGFP fusion (nuclear receptor coactivator 3, mouse); test: compounds lowering mouse p/CIP (NCOA3) protein levels – fluorescence, F442A cells, EGFP fusion, primary screen (AID 1984); details: 16 h, at 10 µM, hits give high values
Out of some 290,000 compounds screened, about 35 (0.01%) were called active. The sample as a whole holds a higher share of actives than the screen did.
List of decrease of EGFP signal values.
Give your result in % as a bare value.

Worked cases, decrease of EGFP signal given:
In [3]: df
Out[3]:
                                   molecule                          target_or_system  readout_unit  numeric_readout
0  COc1cc(/C=C2\C(=N)N3N=C(CC(=O)N4CCOCC4)SC3=NC2=O)cc(OC)c1OC  p/CIP-EGFP fusion (nuclear receptor coactivator 3, mouse)             %              -17
1  CC(C)CNC(=O)COC(=O)c1ccccc1OCC(=O)Nc1ccc(Br)cc1  p/CIP-EGFP fusion (nuclear receptor coactivator 3, mouse)             %            -13.9
2  C=CCNC(=O)COC(=O)CNC(=O)c1cc(Cl)cc([N+](=O)[O-])c1  p/CIP-EGFP fusion (nuclear receptor coactivator 3, mouse)             %               32
3  CN(Cc1ccccc1Cl)C(=O)C1CCC(=O)N(CCc2cccc(F)c2)C1 (stereo unspecified)  p/CIP-EGFP fusion (nuclear receptor coactivator 3, mouse)             %             -8.9
4  O=C(NCCCn1ccnc1)/C(=C\c1ccccc1F)NC(=O)c1ccccc1  p/CIP-EGFP fusion (nuclear receptor coactivator 3, mouse)             %            -21.2

Reported decrease of EGFP signal of CC(Sc1nnnn1C)C(=O)NC(=O)NC1CCCCC1 (stereo unspecified) : 12.9

Reported decrease of EGFP signal of CCOc1cc(CN2CCCC(CO)(Cc3ccc(F)cc3F)C2)ccc1OC (stereo unspecified) : -5.3

Reported decrease of EGFP signal of `O=Cc1c(NCCCN2CCCC2=O)c2ccccc2[nH]c1=O` : -1.8

Reported decrease of EGFP signal of `O=C(c1ccc2nc(N3CCOCC3)sc2c1)N1CCN(c2ccc(Cl)cc2)CC1` : -11.7

Reported decrease of EGFP signal of COc1ccc(N2CCC(N3CCN(C)C(CCO)C3)CC2)cc1 (stereo unspecified) : 13.5

Reported decrease of EGFP signal of COc1cccc(OCC(O)CNC(=O)c2oc3c(C)c(C)ccc3c2C)c1 (stereo unspecified) : -15.6

Reported decrease of EGFP signal of `COCc1c(C(=O)N/N=C(\C)c2ccncc2)nnn1-c1nonc1N` : 1.8

Reported decrease of EGFP signal of `CCOc1ccc(CN(C)C(=O)c2ccc(=O)[nH]c2)cc1` : 5.1

Reported decrease of EGFP signal of `O=C(CCCCCn1c(=S)[nH]c2ccsc2c1=O)NC1CCCCC1` : 1.2

Reported decrease of EGFP signal of `O=C(NC(=S)Nc1ccc2oc(=O)ccc2c1)c1ccc(-c2cccc(Cl)c2Cl)o1` : -4.3

Reported decrease of EGFP signal of `Cc1nc(-c2ccc(F)cc2)c(CC(=O)N2CCN(S(=O)(=O)c3ccc(F)cc3)CC2)s1` : 5.1

Reported decrease of EGFP signal of `O=C(O)/C=C/C(=O)NNc1ccc([N+](=O)[O-])cc1` : -13

Reported decrease of EGFP signal of `O=C(CNC(=O)c1ccccc1)Oc1ccc([N+](=O)[O-])cc1` : -14

Reported decrease of EGFP signal of `O=C(NCc1cccc(C(F)(F)F)c1)c1cccc(S(=O)(=O)N2CCN(Cc3ccccc3)CC2)c1` : -8.5

Reported decrease of EGFP signal of `Cc1ccc(NS(=O)(=O)c2cc3c(cc2C)NC(=O)CO3)cc1` : -4.5

Reported decrease of EGFP signal of COC(c1ccccc1)(c1ccccc1)C(Oc1nc(C)cc(C)n1)C(=O)O (stereo unspecified) : 0

Reported decrease of EGFP signal of `CCOC(=O)C1CCN(Cc2nnc(-c3cccc(Br)c3)o2)CC1` : -16.9

Reported decrease of EGFP signal of Cn1nccc1C(=O)NC1CCCc2c1cnn2-c1ccc(F)cc1F (stereo unspecified) : -26.2

Reported decrease of EGFP signal of COc1cccc(NC(=O)N2CCCC2C(=O)NC2CCCCC2)c1 (stereo unspecified) : -18.1

* * *

target: p/CIP-EGFP fusion (nuclear receptor coactivator 3, mouse); assay: compounds lowering mouse p/CIP (NCOA3) protein levels – fluorescence, F442A cells, EGFP fusion, primary screen (AID 1984); conditions: 16 h, at 10 µM, hits give high values
Among all 290,000 compounds or so, about 35 (0.01%) were called active. What follows is part of a selection rich in actives, with near analogues and random picks from the rest.
readout type: decrease of EGFP signal (%)
Give your result in % as a bare value.

Worked cases, decrease of EGFP signal given:
>>> df
                                   compound  numeric_readout
0   CC1CCN(C(=O)c2ccccc2NC(=O)Cc2ccccc2)CC1             -1.7
1  COC(=O)c1sc(-c2ccc(C(C)(C)C)cc2)cc1NC(=O)/C=C/C(=O)O            -12.7
2  CC(C)c1ccc(S(=O)(=O)N2CCC3(CC2)OCCO3)cc1              0.3
3  Cc1ccccc1N1CCN(C2CCCN(C(=O)c3ocnc3C)C2)CC1 (stereo not given)            -18.6
4             COc1cccc(NC(=O)NCCN2CCCCC2)c1             -6.2

Reported decrease of EGFP signal of `COc1ccc(N2CCN(C(=O)c3cccs3)CC2)cc1` : -8

Reported decrease of EGFP signal of `CCc1ccc(C(=O)NN=C2CCCCCC2)s1` : -8.5

Reported decrease of EGFP signal of `COc1ccccc1CN1CCN(Cc2cc(OC)c(OC)cc2OC)CC1` : -13.1

Reported decrease of EGFP signal of `CCCC[C@H]1COCCS(=O)(=O)N1Cc1cccc(Cl)c1` : -5.5

Reported decrease of EGFP signal of `COCc1ccc(CN2CCC(Oc3ccc(C(=O)NCc4ccccn4)cc3)CC2)o1` : -10.7

Reported decrease of EGFP signal of `CCOc1ccccc1N1CCN(C(=O)c2ccc3[nH]c(C)c(C)c3c2)CC1` : 6.3

Reported decrease of EGFP signal of `COc1cc(NC(=O)c2ccc(-c3csc(C)n3)cc2)c(OC)cc1Cl` : -15.5

Reported decrease of EGFP signal of `COc1ccc(NS(=O)(=O)c2cccc3nsnc23)cc1Cl` : -11.8

Reported decrease of EGFP signal of `CNc1[nH]ncc1[N+](=O)[O-]` : 11.8

Reported decrease of EGFP signal of `O=C(C[n+]1cc(Br)cc2ccccc21)c1ccc(F)cc1` : -1.9

Cited source for all entries: PubChem BioAssay AID1984
